- Target Desc: T1, human transferrin receptor (recombinant, for surface plasmon resonance) (human, UniProt P02786 89-760)
- T1 construct: also called huTfR; human transferrin receptor-biotinylated
- T1 sequence (P02786 89-760 limits assumed): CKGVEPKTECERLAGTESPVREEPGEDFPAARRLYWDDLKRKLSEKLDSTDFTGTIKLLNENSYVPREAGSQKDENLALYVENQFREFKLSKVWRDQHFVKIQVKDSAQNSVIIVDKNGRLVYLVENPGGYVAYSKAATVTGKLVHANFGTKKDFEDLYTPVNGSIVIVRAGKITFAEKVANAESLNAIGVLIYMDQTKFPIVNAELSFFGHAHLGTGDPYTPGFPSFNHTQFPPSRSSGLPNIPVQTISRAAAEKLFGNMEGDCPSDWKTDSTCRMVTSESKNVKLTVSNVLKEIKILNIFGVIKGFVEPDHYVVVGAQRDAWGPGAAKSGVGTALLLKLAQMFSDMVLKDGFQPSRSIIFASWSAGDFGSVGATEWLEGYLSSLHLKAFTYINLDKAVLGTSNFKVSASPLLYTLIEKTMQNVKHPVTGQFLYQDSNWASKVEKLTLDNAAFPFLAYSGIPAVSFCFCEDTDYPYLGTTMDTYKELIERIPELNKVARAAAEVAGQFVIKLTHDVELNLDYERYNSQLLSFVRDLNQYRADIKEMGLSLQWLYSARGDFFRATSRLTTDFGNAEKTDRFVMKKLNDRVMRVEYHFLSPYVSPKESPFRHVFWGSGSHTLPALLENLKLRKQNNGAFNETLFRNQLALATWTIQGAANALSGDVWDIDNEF
- Assay: SPR 25C
Measured koff by item
Number in s⁻¹, nothing else.

Worked cases, answers included:
>>> reported("2/99 VH20/VL3 (antibody, V domains shown) VH: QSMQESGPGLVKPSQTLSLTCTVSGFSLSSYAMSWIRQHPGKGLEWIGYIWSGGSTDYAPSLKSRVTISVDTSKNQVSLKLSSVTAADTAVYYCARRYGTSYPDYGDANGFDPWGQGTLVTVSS VL: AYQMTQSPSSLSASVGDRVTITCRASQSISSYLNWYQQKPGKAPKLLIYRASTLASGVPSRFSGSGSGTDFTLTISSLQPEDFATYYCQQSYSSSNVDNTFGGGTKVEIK")
0.00715
>>> reported("2/99 VH22/VL17 (antibody, V domains shown) VH: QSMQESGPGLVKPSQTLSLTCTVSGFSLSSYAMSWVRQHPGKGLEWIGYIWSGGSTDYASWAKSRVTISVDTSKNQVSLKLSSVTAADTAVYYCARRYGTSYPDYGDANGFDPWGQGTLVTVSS VL: AIQLTQSPSSLSASVGDRVTITCRASQSISSYLAWYQQKPGKAPKLLIYRASTLASGVPSRFSGSGSGTDFTLTISSLQPEDFATYYCQQTYSSSNVDNTFGGGTKVEIK")
0.000938
>>> reported("2/99 VH16/VL10 (antibody, V domains shown) VH: QQLQESGPGLVKPSETLSLTCTVSGFSLSSYAMSWVRQPPGKGLEWIGYIWSGGSTDYNPSLKSRVTISVDTSKNQVSLKLSSVTAADTAVYYCARRYGTSYPDYGDANGFDPWGPGTLVTVSS VL: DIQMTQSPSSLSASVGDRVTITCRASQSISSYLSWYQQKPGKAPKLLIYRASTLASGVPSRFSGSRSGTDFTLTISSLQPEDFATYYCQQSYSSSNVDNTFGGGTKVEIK")
0.00424
>>> reported("2/99 VH1/VL12 (antibody, V domains shown) VH: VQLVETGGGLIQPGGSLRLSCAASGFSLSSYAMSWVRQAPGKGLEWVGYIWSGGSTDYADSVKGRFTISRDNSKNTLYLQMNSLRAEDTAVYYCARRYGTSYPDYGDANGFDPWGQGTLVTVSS VL: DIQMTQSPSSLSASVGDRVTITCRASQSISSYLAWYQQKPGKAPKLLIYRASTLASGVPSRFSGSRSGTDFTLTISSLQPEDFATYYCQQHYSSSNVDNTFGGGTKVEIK")
0.00705

Now, please, on to the next binder.
Using the record for 2/99 VH5/VL15 (antibody, V domains shown) VH: QSMEETGGGLIQPGGSLRLSCAASGFSLSSYAMSWVRQAPGKGLEWVGYIWSGGSTDYADSVKGRFTISRDNSKNTLYLQMNSLRAEDTAVYYCARRYGTSYPDYGDANGFDPWGPGTLVTVSS VL: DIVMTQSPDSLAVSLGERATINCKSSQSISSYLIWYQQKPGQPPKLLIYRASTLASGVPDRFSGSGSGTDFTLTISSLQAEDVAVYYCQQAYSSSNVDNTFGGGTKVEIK , state its measured koff.
0.00637
